- target-or-system: wild type PRC2 (wtPRC2) complex (Homo sapiens)
- Sequence (O75530 whole entry): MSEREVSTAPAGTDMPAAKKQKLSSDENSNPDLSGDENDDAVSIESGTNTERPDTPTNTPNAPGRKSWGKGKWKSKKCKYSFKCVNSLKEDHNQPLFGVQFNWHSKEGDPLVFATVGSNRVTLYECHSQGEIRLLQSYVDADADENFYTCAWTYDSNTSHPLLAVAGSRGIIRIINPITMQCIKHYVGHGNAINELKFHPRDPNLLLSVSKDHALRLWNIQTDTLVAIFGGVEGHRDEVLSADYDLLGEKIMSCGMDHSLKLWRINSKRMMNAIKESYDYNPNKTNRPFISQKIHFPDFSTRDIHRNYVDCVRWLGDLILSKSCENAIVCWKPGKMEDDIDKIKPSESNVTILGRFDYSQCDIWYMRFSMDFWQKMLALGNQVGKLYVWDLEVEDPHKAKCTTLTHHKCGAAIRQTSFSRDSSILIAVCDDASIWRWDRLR
- Sequence (Q15910 whole entry partner): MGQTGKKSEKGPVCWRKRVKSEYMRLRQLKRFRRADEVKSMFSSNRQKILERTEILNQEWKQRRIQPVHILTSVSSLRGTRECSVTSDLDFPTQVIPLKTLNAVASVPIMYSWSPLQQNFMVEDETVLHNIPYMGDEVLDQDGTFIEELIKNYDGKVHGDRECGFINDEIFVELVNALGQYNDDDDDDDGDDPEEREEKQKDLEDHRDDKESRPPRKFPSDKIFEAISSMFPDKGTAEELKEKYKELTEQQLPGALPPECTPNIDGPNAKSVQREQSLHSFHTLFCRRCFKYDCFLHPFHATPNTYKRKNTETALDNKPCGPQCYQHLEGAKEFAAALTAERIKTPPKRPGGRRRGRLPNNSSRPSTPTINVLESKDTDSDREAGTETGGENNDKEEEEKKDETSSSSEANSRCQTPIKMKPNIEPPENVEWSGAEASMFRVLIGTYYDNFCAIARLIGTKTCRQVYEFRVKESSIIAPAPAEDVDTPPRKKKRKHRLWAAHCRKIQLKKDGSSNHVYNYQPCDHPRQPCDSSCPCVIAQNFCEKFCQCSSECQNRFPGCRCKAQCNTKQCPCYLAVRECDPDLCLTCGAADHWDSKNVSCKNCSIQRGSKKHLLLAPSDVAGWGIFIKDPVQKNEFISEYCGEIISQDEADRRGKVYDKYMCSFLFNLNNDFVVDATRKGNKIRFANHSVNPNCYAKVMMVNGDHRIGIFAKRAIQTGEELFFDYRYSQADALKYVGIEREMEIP
- Sequence (Q15022 whole entry partner): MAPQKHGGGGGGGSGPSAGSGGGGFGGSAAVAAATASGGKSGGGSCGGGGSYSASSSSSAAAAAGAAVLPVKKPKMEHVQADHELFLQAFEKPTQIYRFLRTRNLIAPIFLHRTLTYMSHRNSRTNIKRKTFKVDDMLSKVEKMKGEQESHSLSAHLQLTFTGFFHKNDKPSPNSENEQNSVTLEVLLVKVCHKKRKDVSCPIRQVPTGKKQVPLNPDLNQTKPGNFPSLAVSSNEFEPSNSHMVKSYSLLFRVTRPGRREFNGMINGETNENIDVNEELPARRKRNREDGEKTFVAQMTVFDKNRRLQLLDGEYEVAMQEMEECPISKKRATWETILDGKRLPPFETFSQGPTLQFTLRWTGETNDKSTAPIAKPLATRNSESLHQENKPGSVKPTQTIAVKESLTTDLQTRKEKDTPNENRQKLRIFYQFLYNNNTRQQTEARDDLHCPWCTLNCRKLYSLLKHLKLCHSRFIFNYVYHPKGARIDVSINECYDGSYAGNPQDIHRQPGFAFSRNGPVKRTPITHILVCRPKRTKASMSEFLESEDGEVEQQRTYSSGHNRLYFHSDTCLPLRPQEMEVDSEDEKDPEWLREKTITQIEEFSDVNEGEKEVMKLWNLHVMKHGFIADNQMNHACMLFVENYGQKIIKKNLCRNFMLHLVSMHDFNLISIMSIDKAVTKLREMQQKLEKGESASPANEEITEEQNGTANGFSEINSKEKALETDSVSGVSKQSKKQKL
- Sequence (Q09028 whole entry partner): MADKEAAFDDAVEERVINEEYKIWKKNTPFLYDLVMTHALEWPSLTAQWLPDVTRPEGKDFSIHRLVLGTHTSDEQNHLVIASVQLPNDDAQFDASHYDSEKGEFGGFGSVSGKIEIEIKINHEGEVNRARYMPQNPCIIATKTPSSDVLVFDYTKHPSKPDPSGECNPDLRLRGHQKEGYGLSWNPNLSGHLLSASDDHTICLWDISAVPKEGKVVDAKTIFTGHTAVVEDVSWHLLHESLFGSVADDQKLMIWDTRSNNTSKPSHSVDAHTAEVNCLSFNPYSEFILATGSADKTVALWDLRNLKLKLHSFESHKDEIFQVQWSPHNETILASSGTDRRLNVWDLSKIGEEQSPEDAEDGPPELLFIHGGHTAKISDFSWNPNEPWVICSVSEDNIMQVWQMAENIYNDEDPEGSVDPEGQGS
- Sequence (Q6ZN18 whole entry partner): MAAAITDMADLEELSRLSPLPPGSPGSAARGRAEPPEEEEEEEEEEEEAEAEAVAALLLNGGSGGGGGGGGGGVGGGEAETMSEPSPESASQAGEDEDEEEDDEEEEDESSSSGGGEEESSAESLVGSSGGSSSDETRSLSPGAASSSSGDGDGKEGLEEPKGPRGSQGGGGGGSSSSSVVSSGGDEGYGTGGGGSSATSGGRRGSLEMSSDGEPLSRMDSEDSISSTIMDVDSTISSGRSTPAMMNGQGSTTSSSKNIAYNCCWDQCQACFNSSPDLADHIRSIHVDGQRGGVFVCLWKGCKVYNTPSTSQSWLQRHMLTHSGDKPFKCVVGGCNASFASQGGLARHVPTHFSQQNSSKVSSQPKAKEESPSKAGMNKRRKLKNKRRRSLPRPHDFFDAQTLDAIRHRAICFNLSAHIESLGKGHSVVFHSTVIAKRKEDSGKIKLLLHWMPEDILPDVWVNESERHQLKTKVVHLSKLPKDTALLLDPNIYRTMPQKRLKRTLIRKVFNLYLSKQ
- protocol-notes: EED LC-MS assay (SAH production by PRC2)
- Format: biochemical
- test-parameters: read-out: (b) IC50, EED LC-MS Qualified
measured-parameter: IC50 (nM)

// solved cases for IC50 follow
{"columns": ["line-notation", "measured-parameter", "recorded-number"],
 "data": [
  ["COc1ccccc1CNc1ccc(-c2ccc(CN3CCOCC3)nc2)c2nncn12", "IC50", 438],
  ["COc1ccccc1CNc1ccc(-c2cnc(OC)c(F)c2)c2nncn12", "IC50", 3190]
]}

[a] COc1cccc(F)c1CNc1ccc(-c2c(C)noc2C)c2nncn12
[b] COc1ccccc1CNc1ccc(-c2c(C)noc2C)c2nncn12
[c] COc1ccccc1CNc1ccc(-c2ccc(C(C)=O)cc2)c2nncn12
[d] COc1cccc(F)c1CNc1ccc(-c2cnc(C)nc2C)c2nncn12
[e] COc1cccc(F)c1CNc1ccc(-c2ccccn2)c2nncn12
Which order do these items take when sorted by rising IC50? List them. Lab note: final answer is the ordered label list. d, a, e, b, c
(d: 23.6 nM, a: 46.5 nM, e: 137 nM, b: 321 nM, c: 1700 nM)
